Test protocol: Hsp70 transcriptional activators, SAR follow-up, cell-based, HeLa, Hsp70 promoter luciferase, luminescence (AID 651950)
Applied conditions: HeLa hsp70.1pr-luc reporter; at 99 µM (top of the series)
Metric name: activation (%)
Write it as a number; the unit % goes unstated.

• O=C1NC(=O)C(=C/C=C/c2ccc(Br)cc2)C(=O)N1 = -0.8
• COc1ccc(/C=C/C=C2C(=O)NC(=O)NC2=O)cc1 = -1.7
• O=C1NC(=O)C(=C/C=C/c2ccc([N+](=O)[O-])cc2)C(=O)N1 = -1.1
• O=C1NC(=O)C(=C/C=C/c2ccc(Cl)cc2)C(=O)N1 = -1.1

Provide only the value of recorded activation for O=C1NC(=O)C(=C/C=C/c2ccco2)C(=O)N1 -0.7

Origin of measurements: PubChem BioAssay AID651950
